Assay Explanation: Pharmacokinetic experiment (blood concentration by HPLC)
Format: in vivo, mice
Measurement Context: male, mouse, blood, intravenous, 20 mg/kg, Injection, time 180 min, read-out: average conc.
Parameter: concentration at 180 min (ng/mL)
Response body: numeric value in ng/mL, unit text excluded.

Give a short answer stating reported concentration at 180 min for CO/N=C(\C(=O)NC1C(=O)N2C(C(=O)O)=C(Sc3cc(N)nc(N)n3)CSC12)c1csc(N)n1 (stereo not shown) .
800

###

Assay Explanation: Pharmacokinetic experiment (blood concentration by HPLC)
Format: in vivo, mice
Measurement Context: male, mouse, blood, po, 20 mg/kg, Oral administration, time 5 min, read-out: blood concentration, mouse-1
Parameter: concentration at 5 min (ng/mL)
Could you give me the number in ng/mL? Just the number is fine.

Report measured concentration at 5 min; entry is CO/N=C(\C(=O)NC1C(=O)N2C(C(=O)O)=C(Sc3cc(N)nc(N)n3)CSC12)c1csc(N)n1 (stereo not shown) [Compound No. 25]
70
